Data provenance is the supplement of paper PMC9112550.

Tested on: Escherichia coli TOP10;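 also: peptides expressed intracellularly from a pBAD plasmid library in pooled LB shake-flask culture, induced with 0.3% L-arabinose, DNA abundance read by NGS, three biological replicates, DESeq2 with apeglm shrinkage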
Test: shrunken log2 fold change of peptide-encoding DNA abundance (4.5 h post-induction vs induction); higher = less antimicrobial activity (less host growth inhibition)
Settings: time post-induction: 4.5 h; library: site-saturation at positions 5, 18, 19, 20
Binary call on shrunken log2 fold change: Condition met from -0.1 upward, Condition not met beneath that.

# example entries with known answers
{"Record Sequence": "RRIRVRPPRLPRPRPRPTQHPRP", "Tested System": "Escherichia coli TOP10", "Category": "Condition met"}
{"Record Sequence": "RRIRIRPPRLPRPRPRPYIKPRP", "Tested System": "Escherichia coli TOP10", "Category": "Condition not met"}
{"Record Sequence": "RRIRKRPPRLPRPRPRPDGQPRP", "Tested System": "Escherichia coli TOP10", "Category": "Condition met"}

Qu. Confirm if shrunken log2 fold change reported for the sequence "RRIRGRPPRLPRPRPRPFVGPRP" is -0.1 or above.
Ans. Condition not met

Qu. Confirm if shrunken log2 fold change reported for the sequence "RRIRVRPPRLPRPRPRPDTVPRP" is -0.1 or above.
Ans. Condition not met

Qu. Confirm if shrunken log2 fold change reported for the sequence "RRIRMRPPRLPRPRPRPQTQPRP" is -0.1 or above.
Ans. Condition met

Qu. Confirm if shrunken log2 fold change reported for the sequence "RRIRYRPPRLPRPRPRPQGLPRP" is -0.1 or above.
Ans. Condition met

Qu. Confirm if shrunken log2 fold change reported for the sequence "RRIRRRPPRLPRPRPRPYEEPRP" is -0.1 or above.
Ans. Condition not met

Qu. Confirm if shrunken log2 fold change reported for the sequence "RRIRCRPPRLPRPRPRPHTNPRP" is -0.1 or above.
Ans. Condition not met

Qu. Confirm if shrunken log2 fold change reported for the sequence "RRIRERPPRLPRPRPRPYYMPRP" is -0.1 or above.
Ans. Condition not met

Qu. Confirm if shrunken log2 fold change reported for the sequence "RRIRQRPPRLPRPRPRPPFWPRP" is -0.1 or above.
Ans. Condition met

Qu. Confirm if shrunken log2 fold change reported for the sequence "RRIRTRPPRLPRPRPRPIHIPRP" is -0.1 or above.
Ans. Condition met
